biological target: cloned human or rodent CNS receptors, channels, and transporters (PDSP panel) (Homo sapiens); construct: expressed in transfected cells; assay: PDSP GPCR panel primary binding assays at 10 μM; conditions: Receptor 5-HT7A; primary assay, 10 μM
Sequence (P34969 whole entry): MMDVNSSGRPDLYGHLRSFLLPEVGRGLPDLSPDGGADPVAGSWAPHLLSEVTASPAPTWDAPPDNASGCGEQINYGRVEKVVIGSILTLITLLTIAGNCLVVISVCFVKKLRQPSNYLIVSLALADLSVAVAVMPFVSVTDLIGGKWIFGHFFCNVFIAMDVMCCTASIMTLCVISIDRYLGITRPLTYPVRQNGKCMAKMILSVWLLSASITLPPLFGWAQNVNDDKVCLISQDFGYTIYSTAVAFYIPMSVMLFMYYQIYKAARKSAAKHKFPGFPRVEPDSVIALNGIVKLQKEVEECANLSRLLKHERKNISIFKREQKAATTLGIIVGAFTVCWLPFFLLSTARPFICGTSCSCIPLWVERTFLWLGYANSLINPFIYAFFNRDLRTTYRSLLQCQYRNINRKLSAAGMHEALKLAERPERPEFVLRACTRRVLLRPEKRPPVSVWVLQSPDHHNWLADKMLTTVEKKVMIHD
assay-readout: Inhibition 3 (%)

1. c1cn2cc(-c3ccc4cn[nH]c4c3)nc(Nc3ccc(N4CCOCC4)cc3)c2n1 [UNC10302678A, Entospletinib (GS-9973)]
9.37
2. Cl.NC(=O)c1cnc(N[C@@H]2CCCC[C@@H]2N)nc1Nc1cccc(-n2nccn2)c1 [UNC10302682A, P505-15 (PRT06207 HCl)]
54.31
3. CCCCNc1ncc2c(-c3ccc(CN4CCN(C)CC4)cc3)cn([C@H]3CC[C@H](O)CC3)c2n1 [UNC2025C, UNC2025]
-17.29
4. O=c1oc2ccccc2cc1-c1cn2cc(Cc3ccc(F)cc3)sc2n1 [UNC10302680A, iMDK]
-0.54
